- Tested on: SNB-19
- test: NCI tumour cell line growth inhibition, 48 h
The source made the active and inactive calls. No stated cut-off is given here; in the data, active = GI50 up to about 1.1 µM and inactive = higher.
reported_endpoint: GI50

compound | value_reported
COc1ccc2c3c1OC1C(F)C=CC4(O)C(C2)NCCC314 (stereo unspecified) | 1.81 µM (inactive)

Parameter requested: GI50. Apply to each item below.
1. C=C1CC[C@@H]2[C@](C)(COC(=O)CCC(=O)OC)CCC[C@@]2(C)[C@@H]1CCC1=CC(=O)OC1
2. Nc1nc(N)c2cc(Sc3ccc4nc(N)nc(N)c4c3)ccc2n1
3. CC(C)c1nc(Cl)c(Cl)c(Cl)n1
4. O=C(O)C1Cc2ccccc2OC1=O (stereo unspecified)
5. COC(=O)Nc1nc2cc(S(=O)(=O)N3CCOCC3)ccc2[nH]1

> 100 µM (inactive)
4.23 µM (inactive)
18.6 µM (inactive)
> 100 µM (inactive)
> 100 µM (inactive)

Parameter requested: GI50. Apply to each item below.
1. Cc1cc(C)c(S(=O)(=O)N(CCCCN)OCCCN)c(C)c1
2. O=C(Cn1cc(I)c(C(=O)NCC(O)CO)n1)NCC(O)CO (stereo unspecified)

1. 19.6 µM (inactive)
2. > 100 µM (inactive)

Each recorded value in this set is attributed to ChEMBL document CHEMBL1201862.
